Assay: chemical genetic growth profiling, strain panel (AID 1159580);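 further: tested at 20 µM; growth read once vehicle control cultures reached saturation at 30 °C; 1 = growth at the plate median or of vehicle wells; lower values mean less growth of the strain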
Details: S. cerevisiae deletion strains, growth OD, locus YDL101C, strain DUN1, active compounds read low
The campaign covered roughly 5,500 compounds. About 2,000 (36%) were called active. About 18% were inconclusive and are not listed. The list shows a part of the results.
Readout name: normalized growth

Compound: CSC(=NNc1ccccc1)NC(=O)c1c(Cl)cccc1Cl
Readout name: normalized growth
Reported: 0.974
--
Compound: COc1ccc(CNc2ccccc2-c2nc3ccccc3[nH]2)cc1
Readout name: normalized growth
Reported: 0.937
--
Compound: Cc1ccc(OCc2nnc(SCC(=O)Nc3cccc4c3OCO4)n2-c2ccccc2)c2c1CCC2
Readout name: normalized growth
Reported: 0.992
--
Compound: O=C(O)CC(CC(=O)Nc1ccc(I)cc1F)c1ccc(C(F)(F)F)cc1 (centres undefined)
Readout name: normalized growth
Reported: 0.985

###

Experiment: chemical genetic growth profiling, strain panel (AID 1159580);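 further: tested at 20 µM; growth read once vehicle control cultures reached saturation at 30 °C; 1 = growth at the plate median or of vehicle wells; lower values mean less growth of the strain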
Conditions: S. cerevisiae deletion strains, growth OD, locus YDR159W, strain sac3, active compounds read low
Screen size: about 5,500 compounds; about 2,000 (36%) were called active. Another 18% or so got no clear call; they are omitted. This is one part of the list.
With a cut-off of 1, any normalized growth strictly below it is called True; any normalized growth meeting it or above is called False.

Compound: OC[C@H]1OC([S-])[C@H](O)[C@@H](O)[C@@H]1O.[Au+] (stereo partly specified)
Group label: False
--
Compound: CC(CCC(=O)O)[C@H]1CCC2C3C(C[C@H](O)[C@@]21C)[C@@]1(C)CC[C@@H](O)C[C@H]1C[C@H]3O (stereo partly specified)
Group label: False
--
Compound: COc1cc(S(C)=O)ccc1-c1nc2ncccc2[nH]1 (stereo unspecified)
Group label: True
--
Compound: CCN(CC)C(C)CN1c2ccccc2Sc2ccccc21 (stereo unspecified)
Group label: True
--
Compound: CN(CCC(N)CC(=O)N[C@H]1C=CC(n2ccc(N)nc2=O)O[C@@H]1C(=O)O)C(=N)N (stereo partly specified)
Group label: True
--
Compound: CCN(CC)CCOC(=O)C(c1ccccc1)c1ccccc1
Group label: True
--
Compound: CC12CC3CC(C)(C1)CC(N)(C3)C2
Group label: True
--
Compound: COc1ccc(C(=O)N2CCCC2=O)cc1
Group label: True

###

Reported normalized growth values for a set of compounds
Test: chemical genetic growth profiling, strain panel (AID 1159580);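 further: tested at 20 µM; growth read once vehicle control cultures reached saturation at 30 °C; 1 = growth at the plate median or of vehicle wells; lower values mean less growth of the strain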
Conditions: S. cerevisiae deletion strains, growth OD, locus YPR111W, strain DBF20, active compounds read low
Out of some 5,500 compounds screened, about 2,000 (36%) were called active. Inconclusive results (about 18%) are left out. The list shows a part of the results.
Readout name: normalized growth

Compound: O=C(Nc1cccc2ccccc12)c1ccccc1O
Readout name: normalized growth
Reported: 0.884
--
Compound: CS(=O)(=O)/C(C#N)=C/c1ccccc1OCc1c(Cl)cccc1Cl
Readout name: normalized growth
Reported: 0.924
--
Compound: CC1C/C(=N/Nc2ccc(Br)cc2)c2cc(Cl)ccc2S1 (stereo not drawn)
Readout name: normalized growth
Reported: 0.9

###

Experiment: chemical genetic growth profiling, strain panel (AID 1159580);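 further: tested at 20 µM; growth read once vehicle control cultures reached saturation at 30 °C; 1 = growth at the plate median or of vehicle wells; lower values mean less growth of the strain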
Settings: S. cerevisiae deletion strains, growth OD, locus YKL085W, strain MDH1 (second series)
In all, about 5,500 compounds went through this assay and about 2,000 (36%) were called active. Roughly 18% stayed inconclusive and do not appear here. No stated cut-off is given here; in the data, active means normalized growth mostly below about 0.91 (no sharp cut-off); inconclusive means no clear call, values can overlap the other calls; inactive means mostly above about 0.92. This is one part of the list.
Labels: active, inactive

Compound: O=C(O)CCCOc1ccc(Cl)cc1Cl
Group label: inactive
//
Compound: C=C1C2CCC3(C)C(c4ccoc4)OC(=O)CC13OC1CC(OC(C)=O)C(C)(C)C(CC(=O)OC)C12C (centres undefined)
Group label: active
//
Compound: COC(=O)CCCOc1ccc(Cl)cc1Cl
Group label: inactive
//
Compound: C=C[C@H]1CN2CC[C@H]1C[C@@H]2[C@H](O)c1ccnc2ccccc12
Group label: inactive
